For each of the compounds below, state its IC50.
tested on: gel-filtered platelets; assay: In vitro inhibition of thrombin-induced gel-filtered platelet aggregation; format: cell-based; details: Platelet; human gel-filtered platelets; agonist thrombin 50 μL of 1 unit/mL; read-out: Thrmb IC50 (Thrombin-induced aggregation of gel-filtered platelets)
Answer format: value, then unit.

Asked: Look up IC50: NCC[C@H](NC(=O)[C@H](Cc1ccc(F)c(F)c1)NC(=O)Nc1cccc2c(CN3CCCC3)cn(Cc3c(Cl)cccc3Cl)c12)C(=O)NCc1ccccc1 [Compound 167]
Given back: 8.5 µM

Asked: # input compound: COc1ccc(C[C@H](NC(=O)Nc2ccc3c(CN4CCCC4)cn(Cc4cccc(OC)c4)c3c2)C(=O)N[C@@H](CCCNC(=N)N)C(=O)NCc2ccccc2)cc1 [Compound 16] ; wanted: its IC50
Given back: 25.8 µM

Asked: Request the reported IC50 associated with N=C(N)NCCC[C@H](NC(=O)[C@H](Cc1ccccc1Cl)NC(=O)Nc1ccc2c(CN3CCCCC3)cn(Cc3c(Cl)cccc3Cl)c2c1)C(=O)NCc1ccccc1 [Compound 86]
Given back: 2.9 µM

Asked: Would you kindly share the measured IC50 for NC(N)=NCCC[C@H](NC(=O)[C@H](CCc1ccccc1)NC(=O)Nc1ccc2c(CN3CCCC3)cn(Cc3ccc(F)cc3)c2c1)C(=O)NCc1ccccc1 [Compound 27] ?
Given back: 27.3 µM

====

Assignment: determine reported IC50 for the given compounds.
system: gel-filtered platelets; experiment: In vitro inhibition of thrombin-induced gel-filtered platelet aggregation; type: cell-based; details: Platelet; human gel-filtered platelets; agonist thrombin 50 μL of 1 unit/mL; read-out: Thrmb IC50 (Thrombin-induced aggregation of gel-filtered platelets)
// return numeric value only (unit: nM, not printed)

Asked: Find the measured IC50: item `NCCNC(=O)[C@H](CO)NC(=O)[C@H](Cc1ccc(F)c(F)c1)NC(=O)Nc1ccc2c(CN3CCCC3)cn(Cc3c(Cl)cccc3Cl)c2c1` , target or system gel-filtered platelets.
Given back: 1400

Asked: Give gel-filtered platelets IC50 for `N=C(N)NCCC[C@H](NC(=O)[C@H](Cc1ccc(F)c(F)c1)NC(=O)Nc1ccc2c(CN3CCCC3)cn(Cc3c(Cl)cccc3Cl)c2c1)C(=O)NCc1ccncc1`
Given back: 1260

Asked: IC50 of `CC(=O)NCCC[C@H](NC(=O)[C@H](Cc1ccc(F)c(F)c1)NC(=O)Nc1ccc2c(CN3CCCC3)cn(Cc3c(Cl)cccc3Cl)c2c1)C(=O)NCc1ccccc1` on gel-filtered platelets?
Given back: 10000

Asked: Notebook entry, gel-filtered platelets assay: IC50 of `NCC[C@H](NC(=O)[C@H](Cc1ccc2ccccc2c1)NC(=O)Nc1ccc2c(CN3CCCC3)cn(Cc3c(Cl)cccc3Cl)c2c1)C(=O)NCc1ccccc1` = ?
Given back: 860

====

molecular target: thrombin receptor (PAR-1) (Homo sapiens); construct: CHRF membranes (Jones, Biochim. Biophys. Acta 1992, 1136, 272) are thawed from −70° C; endogenous in cells; assay: In vitro thrombin receptor binding assay (CHRF membranes); conditions: tritiated 721-40 radioligand, read-out: Bndg IC50 (Thrombin receptor binding)
Sequence (P25116 22-425): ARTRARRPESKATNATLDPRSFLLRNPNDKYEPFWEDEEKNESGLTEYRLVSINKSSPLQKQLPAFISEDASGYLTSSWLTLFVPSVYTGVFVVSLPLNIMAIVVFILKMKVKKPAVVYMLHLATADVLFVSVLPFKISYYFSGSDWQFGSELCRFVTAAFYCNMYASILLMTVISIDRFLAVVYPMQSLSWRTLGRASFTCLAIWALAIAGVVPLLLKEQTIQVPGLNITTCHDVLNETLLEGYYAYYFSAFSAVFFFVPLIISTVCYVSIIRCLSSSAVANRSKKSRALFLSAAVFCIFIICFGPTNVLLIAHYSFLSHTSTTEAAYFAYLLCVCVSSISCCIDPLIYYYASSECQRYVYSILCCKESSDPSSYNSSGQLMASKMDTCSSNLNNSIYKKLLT
PROPERTY: pIC50
Scale: negative log10 of molar concentration, which is what pIC50 denotes.

Asked: What measured pIC50 goes with `CC(=O)NCCC[C@H](NC(=O)[C@H](Cc1ccc(F)c(F)c1)NC(=O)Nc1ccc2c(CN3CCCC3)cn(Cc3c(Cl)cccc3Cl)c2c1)C(=O)NCc1ccccc1` ?
Given back: 6.09

Asked: Look up pIC50 for this compound: `NC[C@H](NC(=O)[C@H](Cc1ccc(F)c(F)c1)NC(=O)Nc1ccc2c(CN3CCCC3)cn(Cc3c(Cl)cccc3Cl)c2c1)C(=O)NCc1ccccc1`
Given back: 6.04

Asked: Using the record for `NCCNC(=O)[C@H](Cc1ccccc1)NC(=O)[C@H](Cc1ccc(Cl)cc1)NC(=O)Nc1ccc2c(CN3CCCC3)cn(Cc3c(Cl)cccc3Cl)c2c1` , report its pIC50.
Given back: 5.82
